Target: Beta-lactamase (Escherichia coli (strain K12))
Test: Promiscuous and Specific Inhibitors of AmpC Beta-Lactamase (assay without detergent)
Settings: AmpC nitrocefin hydrolysis, absorbance 480 nm, no detergent; series mostly up to 28.7 µM
Out of some 71,000 compounds screened, about 1,300 (1.8%) were called active. The call rests on the fitted dose curve. Many of the other results were omitted from the sample, so actives are more common in it than they were.
Log the outcome using a class from 1 = active, -1 = inactive

Use the examples below as a reference point.
CCOc1ccccc1NC(=O)C1CCC(CNc2c(N3CCOCC3)c(=O)c2=O)CC1 (stereo not given)    1
Cc1cc(N2C(=O)C(=O)/C(=C(/O)c3ccc(Cl)cc3)C2c2cccc(Br)c2)no1 (stereo not given)    -1
CCOC(=O)C1(C(F)(F)F)N=C(N(C)C)OC(N(C)C)=N1    -1

Asked: Record request — test call for "COc1cc(C[C@H](C)N)c(OC)cc1I"
Given back: -1

Asked: Consider next the compound "CCOc1ccccc1NC(=O)C1CCN(S(=O)(=O)c2c(C)nn(C)c2C)CC1" in the same way.
Given back: -1

Asked: Consider next the compound "CCOc1ccc(CCNC(=O)C2CCN(c3ccc(N4CCOCC4)nn3)CC2)cc1OCC" in the same way.
Given back: -1

Asked: Consider next the compound COc1ccccc1NC(=O)C1=C(C)Nc2ncnn2C1c1ccc(C)o1 (stereo not given) in the same way.
Given back: -1

Asked: Consider next the compound "O=C(COC(=O)c1ccccc1C(=O)c1ccccc1)c1ccco1" in the same way.
Given back: -1

Asked: Consider next the compound "CCc1nnc(NC(=O)CSc2nnc(COc3ccc(C#N)cc3)n2-c2ccccc2)s1" in the same way.
Given back: -1

Asked: Consider next the compound "CC1(C)CC(=O)C=C(NC2CC(C)(C)NC(C)(C)C2)C1" in the same way.
Given back: -1

====

Target: Beta-lactamase (Escherichia coli (strain K12)) (UniProt P00811)
Sequence (P00811 whole entry, looked up): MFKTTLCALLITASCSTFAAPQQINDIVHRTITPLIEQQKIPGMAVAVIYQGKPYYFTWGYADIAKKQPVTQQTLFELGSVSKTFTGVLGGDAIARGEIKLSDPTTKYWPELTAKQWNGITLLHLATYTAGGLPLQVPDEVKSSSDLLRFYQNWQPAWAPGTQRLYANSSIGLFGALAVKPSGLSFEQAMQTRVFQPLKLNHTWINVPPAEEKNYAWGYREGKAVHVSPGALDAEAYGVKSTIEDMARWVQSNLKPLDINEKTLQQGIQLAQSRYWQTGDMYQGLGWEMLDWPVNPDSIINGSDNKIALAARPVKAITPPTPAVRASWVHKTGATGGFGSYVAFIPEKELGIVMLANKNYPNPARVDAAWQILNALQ
Test: Promiscuous and Specific Inhibitors of AmpC Beta-Lactamase (assay without detergent)
Conditions: AmpC nitrocefin hydrolysis, absorbance 480 nm, no detergent; series mostly up to 28.7 µM
Hit rate of the full screen: of about 71,000 compounds, about 1,300 (1.8%) were called active. Calls follow the shape of the full dose curve. For the sample, actives were picked, then their nearest neighbours and some compounds at random.
Log the outcome using a class from yes (1) for active, no (0) for inactive

Use the examples below as a reference point.
COc1cccc(-c2nn(C)c3sc(C(=O)N4CCN(c5ccccc5)CC4)cc23)c1    no (0)
CCOC(=O)c1sc(=S)n2c1[nH]c(=O)c1ccc(C(=O)OC)cc12    yes (1)
CCOC(=O)NCc1ccc2c(c1)OCO2    no (0)
Cc1nc2ccc(S(=O)(=O)NCC(=O)O)cc2s1    no (0)
Fc1ccc2nc(Nc3nc4c(s3)CCCC4)sc2c1    no (0)
Cc1ccc(C)c(N2CCN(C(=O)CCCCn3c(=O)[nH]c4ccccc4c3=O)CC2)c1    no (0)
Cc1ccc(SCc2cc(=O)[nH]c(N3CCCCC3)n2)cc1    no (0)
COC(=O)C1=C(C)Nc2ncnn2C1c1ccco1 (stereo unspecified)    no (0)

Asked: Record request — test call for "C=CCOC(=O)COCCC(C)C"
Given back: no (0)

Asked: Consider next the molecule FC(F)Oc1ccccc1C1CC(c2ccc(Br)s2)Nc2ncnn21 (stereo unspecified) in the same way.
Given back: no (0)

Ref: PubChem BioAssay AID585
